System: A549 cells
Experiment: FACS analysis, Annexin V and PI staining
Type: cell-based, human
Conditions: 24 h, 5g 500, 6c 85, 6d 117, 6k 200 µg/mL
PARAMETER: necrotic cell death (of total cell number)

COMPOUND	OBSERVED RESULT
O=C1C(Cl)C(c2ccc(Cl)cc2)N1c1nc(-c2cc(Cl)cc3c2-c2ccc(Cl)cc2C3)cs1 (stereo not shown)	2.1%
O=C(O)c1ccc(C2SCC(=O)N2c2nc(-c3cc(Cl)cc4c3-c3ccc(Cl)cc3C4)cs2)cc1 (stereo not shown)	16.7%
O=C1C(Cl)C(c2cccs2)N1c1nc(-c2cc(Cl)cc3c2-c2ccc(Cl)cc2C3)cs1 (stereo not shown)	1.71%
O=C1C(Cl)C(c2ccc(Br)cc2)N1c1nc(-c2cc(Cl)cc3c2-c2ccc(Cl)cc2C3)cs1 (stereo not shown)	2%

All values here come from paper PMC7315563.
